Sourced from patent US12398107B2

System: Phakopsora pachyrhizi
Experiment: Test D: Asian soybean rust, preventive spray on soybean seedlings
Type: in vivo
Details: Phakopsora pachyrhizi, 10 ppm, 100 = 100% disease control, 0 = no control, read-out: Test D disease control rating (Asian soybean rust)
assay_endpoint: pest or weed control at 10 ppm (%)
Value expressed in %; do not type the unit.

Requested field: pest or weed control at 10 ppm. Item: Cc1nn(C)c(Nc2c(F)cccc2[N+](=O)[O-])c1-c1c(F)cc(F)cc1Cl 32

Requested field: pest or weed control at 10 ppm. Item: Cc1nn(C)c(Nc2c(F)cccc2[N+](=O)[O-])c1-c1ccc(F)cc1Br 0

Requested field: pest or weed control at 10 ppm. Item: CCc1nn(C)c(Nc2c(F)cccc2[N+](=O)[O-])c1-c1ccc(F)cc1Cl 12

Requested field: pest or weed control at 10 ppm. Item: Cc1cc(F)c(Nc2c(-c3ccc(F)cc3Cl)c(C)nn2C)c([N+](=O)[O-])c1 87

Requested field: pest or weed control at 10 ppm. Item: Cc1nn(C)c(Nc2c(F)cccc2[N+](=O)[O-])c1-c1ccc(F)cc1F 0

Requested field: pest or weed control at 10 ppm. Item: Cc1nn(C)c(Nc2c(F)cccc2[N+](=O)[O-])c1-c1ccc(F)cc1Cl 52
